Values of ΔTm reported for Cyclin-dependent kinase 16 (Homo sapiens) appear below.
Number in °C, nothing else.

Chemical structure | ΔTm, °C
COC1=C2C[C@@H](C)C[C@H](OC)[C@H](O)[C@@H](C)/C=C(\C)[C@H](OC(N)=O)[C@@H](OC)/C=C\C=C(/C)C(=O)NC(=CC1=O)C2=O | -0.4

# query: ΔTm of entry CC(C)[C@H](CO)Nc1nc(Nc2cc(N)cc(Cl)c2)c2ncn(C(C)C)c2n1
8.1

# query: ΔTm of entry CCOc1ccc(/C=C2/SC(=O)N(CCN)C2=O)cc1
0.2

# query: ΔTm of entry C#Cc1cccc(Nc2ncnc3cc(OCCOC)c(OCCOC)cc23)c1
-0.4

# query: ΔTm of entry CCOc1cc(/C=C(\C#N)C(N)=O)cc(CSc2ccccc2)c1O
-0.5

----------
- System name: Serine/threonine-protein kinase Nek2 (Homo sapiens) (UniProt P51955)
- Sequence (P51955 whole entry): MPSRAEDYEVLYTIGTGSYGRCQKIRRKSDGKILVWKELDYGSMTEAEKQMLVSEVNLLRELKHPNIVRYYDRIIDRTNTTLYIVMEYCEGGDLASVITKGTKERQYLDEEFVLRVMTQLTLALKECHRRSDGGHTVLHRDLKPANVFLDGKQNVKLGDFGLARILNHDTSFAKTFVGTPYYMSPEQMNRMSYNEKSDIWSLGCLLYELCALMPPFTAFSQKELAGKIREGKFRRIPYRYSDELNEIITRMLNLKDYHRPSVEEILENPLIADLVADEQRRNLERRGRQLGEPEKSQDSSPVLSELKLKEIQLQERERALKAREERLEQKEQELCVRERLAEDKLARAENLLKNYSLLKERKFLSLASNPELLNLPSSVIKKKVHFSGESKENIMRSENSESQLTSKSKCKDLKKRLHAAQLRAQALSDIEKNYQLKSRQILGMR
Rule: criterion met for ΔTm not less than 1 °C, criterion not met for anything less.

Previously resolved entries follow.
Molecule | Group
O=C1Nc2ccc(I)cc2/C1=C1/Nc2ccccc2/C1=N\O | criterion met
C/C(O)=C(\C#N)C(=O)Nc1cc(Br)ccc1Br | criterion not met
Cc1[nH]c(/C=C2\C(=O)Nc3ccc(S(=O)(=O)N(C)c4cccc(Cl)c4)cc32)c(C)c1C(=O)N1CCN(C)CC1 | criterion not met
O=C(O)c1cc(NCc2cc(O)ccc2O)ccc1O | criterion not met
O=C1NC(=O)c2c1c1c3ccccc3[nH]c1n1cncc21 [ISOGRANULATIMIDE] | criterion met
COc1cc2c(cc1OC)-c1n[nH]c(Nc3cccc(F)c3)c1C2 | criterion not met

Is reported ΔTm greater than or equal to 1 °C here: CCN1/C(=C/C(C)=O)Sc2ccc(OC)cc21
criterion not met

Is reported ΔTm greater than or equal to 1 °C here: Cc1nc(N)sc1-c1ccnc(Nc2cccc([N+](=O)[O-])c2)n1
criterion met

Is reported ΔTm greater than or equal to 1 °C here: O=Nc1c(-c2c(O)[nH]c3ccccc23)[nH]c2ccccc12
criterion met

Is reported ΔTm greater than or equal to 1 °C here: Cc1cc2ncc(-c3ccccc3)nc2cc1C
criterion met

Is reported ΔTm greater than or equal to 1 °C here: COc1ccc2c(c1)/C(=C/c1cnc[nH]1)C(=O)N2
criterion met

----------
- System name: Serine/threonine-protein kinase OSR1 (Homo sapiens)
Threshold 0.5 °C: ΔTm strictly smaller gives satisfied, otherwise not satisfied.

Compound | Group
COc1nccc(-c2c(-c3ccc(F)cc3)ncn2[C@H]2CC[C@H](O)CC2)n1 | satisfied
O=C1NC(=O)c2c1c1c3ccccc3[nH]c1n1cncc21 [ISOGRANULATIMIDE] | not satisfied
Ic1cccc(CSc2nnc(-c3ccncc3)o2)c1 | satisfied

Problem: For the compound CCCNC(=O)Nc1ccc(Oc2ncnc3cc(OC)c(OC)cc23)cc1Cl , is ΔTm under 0.5 °C?
satisfied

Problem: For the compound O=c1cc(-c2ccc(O)cc2)oc2cc(O)cc(O)c12 , is ΔTm under 0.5 °C?
not satisfied

----------
Values of ΔTm reported for Tyrosine-protein kinase JAK1 (Homo sapiens) (UniProt P23458) appear below.
Write your answer as a measured quantity: the number, then the unit.

Compound | ΔTm
O=C1Cc2c([nH]c3ccc(Br)cc23)-c2ccccc2N1 [KENPAULLONE] | 1.7 °C
Nc1n[nH]c2nnc(-c3c(-c4ccccc4)nn4ccccc34)cc12 | 0.3 °C
COc1cc2ncnc(Nc3ccc(NC(=O)c4ccccc4)cc3)c2cc1OC [ANILINOQUINAZOLINE1] | 1.9 °C
O=c1c(-c2ccc(F)cc2)c(-c2ccncc2)[nH]n1-c1ccc(Cl)cc1 | 0.3 °C

# query: ΔTm of entry O=c1c2ccccc2[nH]c(=S)n1CCN1CCC(=C(c2ccc(F)cc2)c2ccc(F)cc2)CC1 [DIACYLGLYCEROL KINASE INHIBITOR II]
0.6 °C

# query: ΔTm of entry Cc1c2ccncc2c(C)c2c1[nH]c1ccccc12 [ELLIPTECINE]
2.3 °C

# query: ΔTm of entry CN[C@@H]1CC2O[C@@](C)([C@@H]1OC)n1c3ccccc3c3c4c(c5c6ccccc6n2c5c31)C(=O)NC4
1.9 °C

# query: ΔTm of entry O=c1cc(-c2ccc(O)cc2)oc2cc(O)cc(O)c12
4.6 °C

# query: ΔTm of entry COc1ccc(CNC(=O)Nc2ncc([N+](=O)[O-])s2)cc1
-0.9 °C

----------
- System name: Calcium/calmodulin-dependent protein kinase type II subunit beta (Homo sapiens) (UniProt Q13554)
- Sequence (Q13554 whole entry): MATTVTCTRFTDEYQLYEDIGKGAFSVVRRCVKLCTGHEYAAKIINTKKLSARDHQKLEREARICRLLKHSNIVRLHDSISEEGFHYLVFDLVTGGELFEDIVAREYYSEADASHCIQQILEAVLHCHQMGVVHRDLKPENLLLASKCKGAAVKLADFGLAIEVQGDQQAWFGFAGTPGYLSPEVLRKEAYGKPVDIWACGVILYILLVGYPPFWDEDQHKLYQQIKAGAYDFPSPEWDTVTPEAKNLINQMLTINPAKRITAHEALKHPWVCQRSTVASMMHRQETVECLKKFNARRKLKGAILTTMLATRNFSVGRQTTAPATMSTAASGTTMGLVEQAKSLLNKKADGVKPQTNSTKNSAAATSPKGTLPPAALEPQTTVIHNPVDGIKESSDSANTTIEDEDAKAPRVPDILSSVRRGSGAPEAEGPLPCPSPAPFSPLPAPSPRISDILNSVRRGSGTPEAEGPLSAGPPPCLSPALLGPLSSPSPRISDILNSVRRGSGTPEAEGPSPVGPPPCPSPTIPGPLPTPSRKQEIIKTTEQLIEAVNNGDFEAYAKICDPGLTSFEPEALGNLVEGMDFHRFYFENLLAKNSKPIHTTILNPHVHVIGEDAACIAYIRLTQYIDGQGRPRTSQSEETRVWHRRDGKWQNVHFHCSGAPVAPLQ
Threshold 0.3 °C: ΔTm strictly smaller gives fulfilled, otherwise not fulfilled.

Previously resolved entries follow.
Compound | Group
C/C(O)=C(\C#N)C(=O)Nc1cc(Br)ccc1Br | fulfilled
Cn1cc(C2=C(c3cn(CCCSC(=N)N)c4ccccc34)C(=O)NC2=O)c2ccccc21 | not fulfilled
Cc1ccc(NC(=O)c2ccc(CN3CCN(C)CC3)cc2)cc1Nc1nccc(-c2cccnc2)n1 | fulfilled
Cl.Cn1cc(C2=C(c3ccc4cc5n(c4c3)CCC(CN)C5)C(=O)NC2=O)c2ccccc21 (stereo unspecified) | not fulfilled
N=C(N)NCCNS(=O)(=O)c1cccc2cnccc12 | not fulfilled

Problem: For the compound CCOc1ccc(/C=C2/SC(=O)N(CCN)C2=O)cc1 , is ΔTm under 0.3 °C?
fulfilled

Problem: For the compound CCCNC(=O)Nc1ccc(Oc2ncnc3cc(OC)c(OC)cc23)cc1Cl , is ΔTm under 0.3 °C?
not fulfilled

----------
- System name: Dual specificity mitogen-activated protein kinase kinase 2 (Homo sapiens, UniProt P36507)
- Sequence (P36507 whole entry): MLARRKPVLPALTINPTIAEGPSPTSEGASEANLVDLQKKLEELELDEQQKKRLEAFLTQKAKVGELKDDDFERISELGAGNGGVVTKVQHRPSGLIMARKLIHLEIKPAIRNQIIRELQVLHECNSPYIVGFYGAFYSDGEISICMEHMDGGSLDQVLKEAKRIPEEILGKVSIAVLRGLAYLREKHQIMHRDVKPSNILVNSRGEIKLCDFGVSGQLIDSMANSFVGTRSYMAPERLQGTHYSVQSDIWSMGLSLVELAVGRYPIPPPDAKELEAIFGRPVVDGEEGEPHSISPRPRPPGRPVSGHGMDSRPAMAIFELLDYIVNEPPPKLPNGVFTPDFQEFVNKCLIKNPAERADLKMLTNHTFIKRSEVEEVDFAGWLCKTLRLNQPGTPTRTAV
Rule: Met for ΔTm not less than 1 °C, Not met for anything less.

Previously resolved entries follow.
Compound | Group
Nc1n[nH]c2nc3ccccc3nc12 | Not met
O=C1c2ccccc2-c2n[nH]c3cccc1c23 | Met
COc1ccc(S(=O)(=O)N(CCO)c2ccccc2CN(C)C/C=C/c2ccc(Cl)cc2)cc1 | Not met
CC(=O)O/N=C1/C(=C2/C(=O)Nc3cc(Br)ccc32)Nc2ccccc21 | Met
Cc1cc2ncc(-c3ccccc3)nc2cc1C | Not met
Nc1cccc(-c2cc3c(Oc4cccc(O)c4)ncnc3[nH]2)c1 | Met

Is reported ΔTm greater than or equal to 1 °C here: CCCCc1c(-c2ccc(O)cc2)[nH]c2nccnc12
Met

Is reported ΔTm greater than or equal to 1 °C here: Cc1cncc2cccc(S(=O)(=O)N3CCCNC[C@@H]3C)c12
Not met

Is reported ΔTm greater than or equal to 1 °C here: O=C1Nc2cc(Br)ccc2/C1=C1/Nc2ccccc2/C1=N\O
Met

Is reported ΔTm greater than or equal to 1 °C here: C[S+]([O-])c1ccc(CSc2nc(-c3ccc(F)cc3)c(-c3ccncc3)[nH]2)cc1 (stereo not drawn)
Not met

Is reported ΔTm greater than or equal to 1 °C here: O=C1Nc2ccccc2/C1=C1/Nc2ccccc2/C1=N\O
Met

Is reported ΔTm greater than or equal to 1 °C here: O=C1Nc2ccccc2/C1=C/c1cnc[nH]1
Met

Is reported ΔTm greater than or equal to 1 °C here: COc1cc2ncnc(Nc3cccc(Br)c3)c2cc1OC
Not met

Is reported ΔTm greater than or equal to 1 °C here: NS(=O)(=O)c1ccc(Nc2nc(OCC3CCCCC3)c3nc[nH]c3n2)cc1
Not met

Is reported ΔTm greater than or equal to 1 °C here: COc1cccc(-c2cc(=O)c3ccccc3o2)c1N
Not met

----------
Values of ΔTm reported for Serine/threonine-protein kinase PAK 4 (Homo sapiens) (UniProt O96013) appear below.
Number in °C, nothing else.

# annotated cases, reported ΔTm shown
Molecule | Unit abbrev | Numeric value
CCN1/C(=C/C(C)=O)Sc2ccc(OC)cc21 | °C | 0.9
CCCCc1c(-c2ccc(O)cc2)[nH]c2nccnc12 | °C | 2.6
NS(=O)(=O)c1ccc(Nc2nc(OCC3CCCCC3)c3nc[nH]c3n2)cc1 | °C | 3.8
O=C1Nc2ccc(S(=O)(=O)O)cc2/C1=C1/Nc2ccccc2/C1=N\O | °C | 2.7
Cc1nc2sccn2c(=O)c1CCN1CCC(=C(c2ccccc2)c2ccc(F)cc2)CC1 | °C | 0.8

What reported ΔTm corresponds to O=C1NC(=O)c2c1c1c3ccccc3[nH]c1n1cncc21 [ISOGRANULATIMIDE] on Serine/threonine-protein kinase PAK 4 (Homo sapiens) (UniProt O96013)?
3.8

What reported ΔTm corresponds to Nc1nccc(-c2c(-c3ccc(F)cc3)ncn2C2CCNCC2)n1 on Serine/threonine-protein kinase PAK 4 (Homo sapiens) (UniProt O96013)?
1

What reported ΔTm corresponds to O=C(Nc1cccc(Nc2nccc(Nc3cccc(C(F)(F)F)c3)n2)c1)C1CC1 on Serine/threonine-protein kinase PAK 4 (Homo sapiens) (UniProt O96013)?
1.5

What reported ΔTm corresponds to O=C(Nc1cccc(Nc2cc(Nc3cccc(C(F)(F)F)c3)ncn2)c1)C1CC1 on Serine/threonine-protein kinase PAK 4 (Homo sapiens) (UniProt O96013)?
0.9

What reported ΔTm corresponds to Cl.Cn1cc(C2=C(c3ccc4cc5n(c4c3)CCC(CN)C5)C(=O)NC2=O)c2ccccc21 (stereo unspecified) on Serine/threonine-protein kinase PAK 4 (Homo sapiens) (UniProt O96013)?
1.6

What reported ΔTm corresponds to COc1ccc(Cl)cc1NC(=O)Nc1cc(C)nc2ccccc12 on Serine/threonine-protein kinase PAK 4 (Homo sapiens) (UniProt O96013)?
-0.6

What reported ΔTm corresponds to CC(C)(C)c1nc2c3ccc(F)cc3c3c(=O)[nH]ccc3c2[nH]1 on Serine/threonine-protein kinase PAK 4 (Homo sapiens) (UniProt O96013)?
1.2

What reported ΔTm corresponds to CC(C)n1cnc2c(NCc3ccccc3)nc(NCCCO)nc21 on Serine/threonine-protein kinase PAK 4 (Homo sapiens) (UniProt O96013)?
-0.6
